The origin of these recorded values is patent US20240376151A1.

Biological target: CUL5 (Homo sapiens, UniProt Q93034, L345D/V341R)
Construct: GST-TEV (N, cleaved yes); made in house; host or cells: E. coli BL21 CodonPlus
Sequence (Q93034 1-386 V341R/L345D): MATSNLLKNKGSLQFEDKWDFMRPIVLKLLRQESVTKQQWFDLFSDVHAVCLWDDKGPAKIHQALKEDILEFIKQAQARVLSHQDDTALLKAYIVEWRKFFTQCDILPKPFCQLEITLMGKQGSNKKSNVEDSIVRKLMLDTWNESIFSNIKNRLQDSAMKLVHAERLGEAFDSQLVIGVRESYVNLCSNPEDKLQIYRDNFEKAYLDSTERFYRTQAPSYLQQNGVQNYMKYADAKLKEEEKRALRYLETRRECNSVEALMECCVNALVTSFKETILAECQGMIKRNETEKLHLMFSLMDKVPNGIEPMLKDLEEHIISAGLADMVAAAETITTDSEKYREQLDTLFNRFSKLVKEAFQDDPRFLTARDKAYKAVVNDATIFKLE
Assay: Naive Library Presenter Screening (phage, NGS), CUL5
Format: binding
Settings: CUL5 target concentration 1000 nM, first column
Ends that are not written are not given here.
parameter: interaction data at Target Concentration 1000

Here is how some sequences turned out for interaction data at Target Concentration 1000.
sequencecontent=DPAWMTCATAAWECYLA studytarget="CUL5 (Homo sapiens, UniProt Q93034, L345D/V341R)" valuemeasured=55
sequencecontent=DPAWRECAHAAWQCYIQ studytarget="CUL5 (Homo sapiens, UniProt Q93034, L345D/V341R)" valuemeasured=93
sequencecontent="DPAWQWCAEAAWQCITH (not fully specified (C-terminus, bridges); cysteine pairing not given here)" studytarget="CUL5 (Homo sapiens, UniProt Q93034, L345D/V341R)" valuemeasured=265

A: DPAWYECASAAWVCYSM
B: DPAIQQCAEAAWSCYVE
stdin: Higher interaction data at Target Concentration 1000: A or B ? Identify your pick by its label.
stdout: A
(A: 171, B: 14)

I: DPAWRACAQAAWDCIIA
II: DPAWWECAEAAWQCQVL
stdin: Higher interaction data at Target Concentration 1000: I or II ? Identify your pick by its label.
stdout: I
(I: 368, II: 59)

* * *

Molecular target: CDK2 (Homo sapiens)
Experiment: Phage Library Screening with NGS, CDK2
Format: binding
Design: Full length CDK2 (residues 1-298) with an N-terminal GST-3C-6×his-TEV tag; GST-3C-6×his-TEV (N, cleaved yes); made in house; host or cells: Sf9 (Bac-to-Bac baculovirus)
Details: CDK2, target concentration 100
Numbered stars: 1 amine (or outer) side, 2 acyl side, 3 side chain; on linkers, the order of the positions; unused ones are H or OH. Bridge positions count the residues as written; N and C are the ends. Ends that are not written are not given here. Phenylene(1,4-NHCOCH2)2 = O=C(C[*:1])Nc1ccc(NC(=O)C[*:2])cc1
parameter: phage screen counts, Target Concentration 100

sequencecontent="DPAWWRCSIAAMECHHD (linker 7-14 via Phenylene(1,4-NHCOCH2)2 (inferred))" valuemeasured=13
sequencecontent="DPAWWVCAVAAIECQEY (linker 7-14 via Phenylene(1,4-NHCOCH2)2 (inferred))" valuemeasured=258
sequencecontent="DPAWWRCSVAAIDCHWN (linker 7-14 via Phenylene(1,4-NHCOCH2)2 (inferred))" valuemeasured=3

1: DPAWWMCTIAAIECETT (linker 7-14 via Phenylene(1,4-NHCOCH2)2 (inferred))
2: DPAWWSCVIAAMECQDI (linker 7-14 via Phenylene(1,4-NHCOCH2)2 (inferred))
stdin: Higher phage screen counts, Target Concentration 100: 1 or 2 ? Identify your pick by its label.
stdout: 1

I: PCLEAFFSCVY (linker 2-9 via Phenylene(1,4-NHCOCH2)2 (inferred))
II: DPAWYECIVAAIECVEY (linker 7-14 via Phenylene(1,4-NHCOCH2)2 (inferred))
III: DPAWWHCVIAALDCETQ (linker 7-14 via Phenylene(1,4-NHCOCH2)2 (inferred))
stdin: // ranking: key=phage screen counts, Target Concentration 100, reverse=True Put the labels in the order asked and list them.
stdout: II, III, I
(II: 79, III: 5, I: 0)
